Sourced from PubChem BioAssay (NCI)

System: NCI-H322M lung
test: NCI-60 one-dose screen, 48 h (100 = growth as untreated, 0 = no growth, -100 = all killed)
cond: 10 µM unless noted
About 83,000 compounds went through this panel and 20% of them were active in at least one assay; those are over-represented in the sample as a whole.
measured_attribute: growth (%)

COC(=O)CNC(=O)[C@@H](OC)[C@@H]1Cc2cc3cc(OC4CC(OC5CC(O)C(O)C(C)O5)C(O)C(C)O4)c(C)c(O)c3c(O)c2C(=O)[C@H]1OC1CC(OC2CC(OC3CC(C)(O)C(O)C(C)O3)C(O)C(C)O2)C(O)C(C)O1 (stereo partly specified); 15.7
COc1cc(Nc2ncc3c(n2)-c2ccc(Cl)cc2C(c2c(F)cccc2OC)=NC3)ccc1C(=O)O; 90.4
CCc1nc2cc(/C=C/C(=O)NO)ccc2c(=O)n1CCc1ccc(F)cc1; 18.6
CCOC(=O)C1=C(C)N=C2Sc3cc(OC(F)(F)F)ccc3N2[C@H]1c1ccccn1; 50.2
CC(=O)C1=C(C)NC(SCc2nnc(-c3ccc(C)cc3)o2)=NC1c1ccc(F)cc1 (stereo unspecified); 92.8
CC(C)CC(=O)Nc1n[nH]c2c1CN(C(=O)C1CCN(C)CC1)C2(C)C; 24.4
CCCCCCCC(=O)SCC/C=C/[C@@H]1CC(=O)NCc2cc(ccn2)C2=N[C@@](C)(CS2)C(=O)N[C@@H](C(C)C)C(=O)O1; -16.8
CCN1CCN(Cc2ccc(Cc3ncc(F)c(-c4cc(F)c5nc(C)n(C(C)C)c5c4)n3)nc2)CC1; 29.3
Cc1cc2c(-c3nc4ccccn4c3NC34CC5CC(CC(C5)C3)C4)c(O)c(O)cc2c(O)c1-c1c(C)cc2c(-c3nc4ccccn4c3NC34CC5CC(CC(C5)C3)C4)c(O)c(O)cc2c1O; 30.2
COc1ccc(C2CC(=O)c3c(O)c(OC)c(OC)c(OC)c3O2)c(O)c1 (stereo unspecified); 51.4
Cc1cc(Oc2ccccc2)ccc1Nc1ncnc2ccc(-c3cnc(Cl)c(NS(C)(=O)=O)c3)cc12; 0.949
Nc1c(C(=O)c2ccccc2)sc2nc(-c3cccs3)cc(-c3cccs3)c12; 80.8
CCCCCCCCCCCC[n+]1ccccc1; 55.7
CC1(C)NC(=O)c2[nH]c3c(Cl)c(Cl)ccc3c2C1C#N (stereo unspecified); 90.5
C[C@H](NC(=O)c1c(N)nn2cccnc12)c1cc2cccc(C#Cc3cnn(C)c3)c2c(=O)n1-c1ccccc1; 53.6
COc1cc2cc(NCc3ccc(F)cc3)nc(C)c2cc1OC; 52.5

* * *

Test system: SR leukemia
test: NCI-60 one-dose screen, 48 h (100 = growth as untreated, 0 = no growth, -100 = all killed)
cond: 10 µM unless noted
About 83,000 compounds went through this panel and 20% of them were active in at least one assay; those are over-represented in the sample as a whole.
measured_attribute: growth (%)

COC(=O)c1[nH]cnc1/N=N/N(C)CCO; 75.4
Cc1ccc(N=C2CSc3nnc(-c4csc5c4CCCC5)n3N2)cc1; 32.2
COc1ccc(S(=O)(=O)N(C(C)=O)c2ccccc2/C=C/c2cc[n+]([O-])cc2)cc1; 16.4
CCN(CC)c1cc2oc3cc(N)cc(=N)c-3nc2cc1C; 30.4
C=C1C(=O)O[C@H]2[C@H]1CC/C(Cn1cc(-c3cc(C)c(C)cc3C)nn1)=C\CC[C@@]1(C)O[C@@H]21; -5.15
CCCCCCCCCCCC[n+]1ccccc1; -20.7
c1ccc2c(c1)CCN(NCCN1CCCC1)C2; 103
Clc1ccc2c(NCCNc3nc(N4CCCC4)nc4ccccc34)ccnc2c1; -22.6
